assay: Acute toxicity test; type: in vivo; details: both sexes, rat, in vivo; rats; single oral 3000 mg/kg; 14 days observation; read-out: No Observed Adverse Effect Level (NOAEL)
observable: NOAEL at 14 days

Query block: Read the entry `CNC(=O)c1cc(Oc2ccc(NC(=O)c3cccc(OC)c3)cc2)ccn1` and write its reported NOAEL at 14 days.
Result block: > 3000 mg/kg

----------
tested on: SW620; test: Inhibition of tumor cell growth; format: cell-based; settings: SW-620; SW620, human colorectal carcinoma; 48 hour treatment; means ± SD, n=3
observable: IC50 (µM)
# number only, unit µM dropped from output

Query block: Read the entry `CNC(=O)c1cc(Oc2ccc(NC(=O)c3cccc(OC)c3)cc2)ccn1` and write its reported IC50.
Result block: 7.9
